Target Under Test: GDP-loaded KRAS G12D (Homo sapiens (Human), UniProt P01116, G12D)
Sequence (P01116-2 other isoform, or with tags, fused parts or gaps G12D): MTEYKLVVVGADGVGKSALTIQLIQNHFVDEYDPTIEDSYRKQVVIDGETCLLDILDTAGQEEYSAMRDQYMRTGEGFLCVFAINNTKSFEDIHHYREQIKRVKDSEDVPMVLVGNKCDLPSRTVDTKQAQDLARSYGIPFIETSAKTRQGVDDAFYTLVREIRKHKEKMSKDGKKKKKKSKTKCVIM
Method: KRAS G12D (GDP) biochemical assay (TR-FRET probe displacement)
Stated Conditions: 2 hours
Consider the following molecules; for each one, report its IC50.
A number alone suffices; assume nM.

Would you mind telling me what IC50 value was observed for C#Cc1c(F)ccc2cc(O)cc(-c3nc4c5c(nc(OC[C@@]67CCCN6C[C@H](F)C7)nc5c3F)N3C[C@@]5(C)CC[C@H](N5)[C@H]3CC4)c12 [Example 190] ?
0.1

Would you mind telling me what IC50 value was observed for C#Cc1c(F)ccc2cccc(-c3nc4c5c(nc(OC[C@@]67CCCN6C[C@H](F)C7)nc5c3F)N3C[C@H]5CC[C@H](N5)[C@H]3CC4)c12 [Example 23] ?
1

Would you mind telling me what IC50 value was observed for C#Cc1c(F)ccc2cccc(-c3nc4c5c(nc(OC[C@@]67CCCN6C[C@H](F)C7)nc5c3F)N3C[C@H]5CC[C@H](N5)[C@@H]3[C@@H](C)CC4)c12 [Example 156] ?
100

Would you mind telling me what IC50 value was observed for C#Cc1c(F)ccc2cc(O)cc(-c3nc4c5c(nc(OCC6(CN7CC8CC(C8)C7)CC6)nc5c3F)N3C[C@H]5CC[C@H](N5)[C@H]3CC4)c12 [Example 179] ?
0.1

Would you mind telling me what IC50 value was observed for Oc1cc(-c2nc3c4c(nc(OC[C@@]56CCCN5C[C@H](F)C6)nc4c2F)N2C[C@H]4CC[C@H](N4)[C@H]2CO3)c2c(CC3CC3)c(F)ccc2c1 [Example 14] ?
34

* * *

Consider the following compounds; for each one, report its log10 IC50.
Target Under Test: GDP-loaded KRAS G12D (Homo sapiens (Human), UniProt P01116, G12D)
Method: KRAS G12D (GDP) biochemical assay (TR-FRET probe displacement)
Stated Conditions: 2 hours
Record value = log10 of IC50 given in nM.

Would you mind telling me what log10 IC50 value was observed for C#Cc1c(F)ccc2cccc(-c3nc4c5c(nc(OCC6(CN7CCC[Si](C)(C)CC7)CC6)nc5c3F)N3C[C@H]5CC[C@H](N5)[C@@H]3[C@@H](C)C4)c12 [Example 100] ?
1.50

Would you mind telling me what log10 IC50 value was observed for C#Cc1c(F)ccc2cc(O)cc(-c3nc4c5c(nc(OC[C@@]67CCCN6C[C@H](F)C7)nc5c3F)N3C[C@H]5CC[C@H](N5)[C@H]3[C@H](C3CC3)O4)c12 [Example 71] ?
0.60

Would you mind telling me what log10 IC50 value was observed for C#Cc1c(F)ccc2cccc(-c3nc4c5c(nc(OC[C@@]67CCCN6[C@H](COC(C(F)(F)F)C(F)(F)F)CC7)nc5c3F)N3C[C@H]5CC[C@H](N5)[C@H]3CC4)c12 [Example 150] ?
-0.70

Would you mind telling me what log10 IC50 value was observed for Fc1ccc2c(-c3nc4c5c(nc(OC[C@@]67CCCN6C[C@H](F)C7)nc5c3F)N3C[C@H]5CC[C@H](N5)[C@H]3CO4)cccc2c1 [Example 66] ?
2.93

Would you mind telling me what log10 IC50 value was observed for Fc1ccc(-c2nc3c4c(nc(OC[C@@]56CCCN5C[C@H](F)C6)nc4c2F)N2C[C@H]4CC[C@H](N4)[C@H]2CO3)c2ccccc12 [Example 72] ?
2.71
